Molecular target: T1, CD137-hisFc fusion protein (Sino Biological Cat 10041-H03H) (human, UniProt Q07011 24-186)
T1 construct: Bought; also called recombinant human CD137 (fused with human Fc and His tag); not shown: His tag and human Fc
Test: BLI Octet, Fab
Here the recorded log10 kon is given for each entry.
quantityMeasured: log10 kon (log10 of the value in M⁻¹ s⁻¹)

1) Fab 7163 (Fab, V domains shown, Fab from E. coli; also called VH59/VL59) VH: EVQLVESGGGLVQPGGSLRLSCAASGFSLSTSGVGVTWIRQAPGKSLEWIGDIYHSGSTYYSPSLKSRVTISRDNSKNTLYLQLNSLRAEDTAVYYCAREGSDAVAGDWFDYWGQGTLVTVSS VL: DIQLTQSPSSLSASVGDRVTITCRASQSISSYLNWYQQKPGKAPKLLIYAASTLQSGVPSRFSGSGSGTDFTLTISSLQPEDFATYYCQQYYSTPLTFGQGTKVEIKR : 5.48
2) Fab 5302 (Fab, V domains shown, Fab from E. coli; also called VH13/VL13) VH: EVQLVESGGGLVQPGGSLRLSCAASGFSLSTGGVGVAWIRQAPGKGLEWVSSISGYGSTTYYADSVKGRFTISRDNSKNTLYLQLNSLRAEDTAVYYCAREGSDAVLGDWFGYWGQGTLVTVSS VL: DIQLTQSPSSLSASVGDRVTITCQASQDITTYLAWYQQKPGKAPKLLIYDASNRATGIPSRFSGSGSGTDFTLTISSLQPEDFATYYCQQGYYLWTFGQGTKVEIKR : 5.55
3) Fab 7087 (Fab, V domains shown, Fab from E. coli; also called VH45/VL45) VH: EVQLVESGGGLVQPGGSLRLSCAASGFSLSTGGVGVGWIRQAPGKGLEWVSYISGDGDTTYYADSVKGRFTISRDNSKNTLYLQLNSLRAEDTAVYYCAREGSTAVLGDWFAYWGQGTLVTVSS VL: DIQLTQSPSSLSASVGDRVTITCRASQGISSYLAWYQQKPGKAPKLLIYDASNLETGVPSRFSGSGSGTDFTLTISSLQPEDFATYYCQQYYTTPLTFGQGTKVEIKR : 5.09
4) Fab 7078 (Fab, V domains shown, Fab from E. coli; also called VH41/VL41) VH: EVQLVESGGGLVQPGGSLRLSCAASGFSLSTGGVGVGWIRQAPGKGLEWVSYISGDGDTTYYADSVKGRFTISRDNSKNTLYLQLNSLRAEDTAVYYCAREGSDTVAGDWFAYWGQGTLVTVSS VL: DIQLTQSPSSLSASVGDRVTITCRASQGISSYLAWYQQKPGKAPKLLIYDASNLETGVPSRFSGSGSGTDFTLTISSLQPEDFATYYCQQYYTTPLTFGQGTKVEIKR : 5.54
5) Fab 4139 (Fab, V domains shown, Fab from E. coli; also called VH8/VL8) VH: EVQLVESGGGLVQPGGSLRLSCAASGYTFTGYAIHWVRQAPGKGLEWVSAISGDGGSTYYADSVKGRFTISRDNSKNTLYLQLNSLRAEDTAVYYCARGYRGYFDYWGQGTLVTVSS VL: DIQLTQSPSSLSASVGDRVTITCRASESVTSTYLAWYQQKPGKAPKLLIYDASNLETGVPSRFSGSGSGTDFTLTISSLQPEDFATYYCQQYSDWPPTFGQGTKVEIKR : 4.70
6) Fab 5367 (Fab, V domains shown, Fab from E. coli; also called VH31/VL31) VH: EVQLVESGGGLVQPGGSLRLSCAASGFSLSTSGVGVGWIRQAPGKGLEWVSGISGAGDSTYYADSVKGRFTISRDNSKNTLYLQLNSLRAEDTAVYYCAREGSDTVLGDWFAYWGQGTLVTVSS VL: DIQLTQSPSSLSASVGDRVTITCRASQDIRSYLAWYQQKPGKAPKLLIYDASNRATGIPSRFSGSGSGTDFTLTISSLQPEDFATYYCQQGYSIWTFGQGTKVEIKR : 5.61
7) Fab 5351 (Fab, V domains shown, Fab from E. coli; also called VH25/VL25) VH: EVQLVESGGGLVQPGGSLRLSCAASGYSITSGHYWAWIRQAPGKGLEWVSSISGYGSTTYYADSVKGRFTISRDNSKNTLYLQLNSLRAEDTAVYYCARGGSDAVLGDWFAYWGQGTLVTVSS VL: DIQLTQSPSSLSASVGDRVTITCRASQGIGSFLAWYQQKPGKAPKLLIYDASNLETGVPSRFSGSGSGTDFTLTISSLQPEDFATYYCQQGYYLWTFGQGTKVEIKR : 5.67
8) Fab 4140 (Fab, V domains shown, Fab from E. coli; also called VH9/VL9) VH: EVQLVESGGGLVQPGGSLRLSCAASGYSISSGYHWNWIRQAPGKGLEWVSSISGSGGSTYYADSVKGRFTISRDNSKNTLYLQLNSLRAEDTAVYYCARDPNYYSSGSYFDYWGQGTLVTVSS VL: DIQLTQSPSSLSASVGDRVTITCRASQGIGSFLGWYQQKPGKAPKLLIYDASNRATGIPSRFSGSGSGTDFTLTISSLQPEDFATYYCQQSYSLWTFGQGTKVEIKR : 4.41
9) Fab 7080 (Fab, V domains shown, Fab from E. coli; also called VH43/VL43) VH: EVQLVESGGGLVQPGGSLRLSCAASGFSLSTGGVGVGWIRQAPGKGLEWVSYISGAGGTTYYADSVKGRFTISRDNSKNTLYLQLNSLRAEDTAVYYCAREGSDTVLGDWFAYWGQGTLVTVSS VL: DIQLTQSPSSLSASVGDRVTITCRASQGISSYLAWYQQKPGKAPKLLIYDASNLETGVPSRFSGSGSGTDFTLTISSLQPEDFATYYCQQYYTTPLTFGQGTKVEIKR : 5.49
10) Fab 5314 (Fab, V domains shown, Fab from E. coli; also called VH16/VL16) VH: EVQLVESGGGLVQPGGSLRLSCAASGFSLSTGGVAVGWIRQAPGKGLEWLALIDWAGDKSYSTSLKSRLTISRDNSKNTLYLQLNSLRAEDTAVYYCARGGSDTVLGDWFAYWGQGTLVTVSS VL: DIQLTQSPSSLSASVGDRVTITCRASQGVSPYLAWYQQKPGKAPKLLIYDASNRATGIPSRFSGSGSGTDFTLTISSLQPEDFATYYCQQGYSTWTFGQGTKVEIKR : 5.32
